- Test system: Aconitineinduced arrhythmia, rats
- method-description: animal or person
- Assay type: in vivo, rats (Sprague Dawley)
- condition: at the highest nontoxic dose; quinidine = 1.00
Would you kindly list R.M.A. (relative maximum activity) for each of these molecules?
Answers are plain numbers.

Sample records with R.M.A. (relative maximum activity):
molecule="CCN(CC)CCC(C)CCOc1c(C)nc(Cc2ccccc2)c2c1COC2 (stereo not drawn)" val=1.96
molecule=CN(C)CCCOc1c(Cc2ccccc2)nc(Cc2ccccc2)c2c1COC2 val=2.40
molecule=Cc1nc(Cc2ccccc2)c2c(c1OCCCCNC(C)C)COC2 val=2.69
molecule="Cc1nc(Cc2ccccc2)c2c(c1OCCC(C)CCNC(C)C)COC2 (stereo not drawn)" val=2.50
molecule=Cc1nc(Cc2ccccc2)c2c(c1OCCCNC(C)C)COC2 val=3.44

For the next question, use this molecule.
Challenge: Any idea what R.M.A. (relative maximum activity) came out for Cc1nc(Cc2ccccc2)c2c(c1OCCCCNC(C)(C)C)COC2 on Aconitineinduced arrhythmia, rats?
Response given: 2.24

// provenance: patent US4206117A
